# System: cancer cells on SISgel or plastic
# protocol: Activity of leads and analogs on cancer cells grown on plastic vs SISgel (cell line not stated)
# Format: cell-based
# test.conditions: ratio IC50-p/IC50-S
Each record is given MET if its reported SR is strictly below 2. Records at or above 2 are given NOT MET.

compound: CCOc1ccc(Nc2ccc(C(=C3C=CC(=[N+](CC)Cc4cccc(S(=O)(=O)[O-])c4)C=C3C)c3ccc(N(CC)Cc4cccc(S(=O)(=O)[O-])c4)cc3C)cc2)cc1.[Na+]
class.name: MET
//
compound: Cc1nc(N=Nc2ccc(S(=O)(=O)O)cc2S(=O)(=O)O)c(COP(=O)(O)O)c(C=O)c1O
class.name: MET
//
compound: Cc1ccc(N=Nc2c(O)c(S(=O)(=O)[O-])cc3cc(S(=O)(=O)[O-])ccc23)c(C)c1.[Na+].[Na+] [Ponceau Xylidine]
class.name: NOT MET
//
compound: O=S(=O)(O)c1cc(O)c2c(N=Nc3c(S(=O)(=O)O)cc4cc(S(=O)(=O)O)cc(N=Nc5c(S(=O)(=O)O)cc6cc(S(=O)(=O)O)cc(O)c6c5O)c4c3O)cc(S(=O)(=O)O)cc2c1
class.name: MET

Below: the item to evaluate.
Please determine if O=S(=O)([O-])c1ccc(N=Nc2c(O)ccc3cc(S(=O)(=O)[O-])ccc23)cc1.[Na+].[Na+] is below 2 in terms of SR. NOT MET

###

# Tested on: cancer cells on SISgel or plastic
# protocol: Activity of leads and analogs on cancer cells grown on plastic vs SISgel (cell line not stated)
# Type: cell-based
# test.conditions: ratio IC50-p/IC50-S
# Description: The NCI library is no longer available in the form used here, but how it was constructed is described (http://dtp.nci.nih.gov/branches/dscb/diversity_explanation.html). […] Efficacy in vitro was assessed by plating 30,000 cells in 50 μL of high glucose DMEM with penicillin-streptomycin and 10 % fetal calf serum on SISgel in a 96-well plate containing 50 μL of gelled SISgel per well. […] Data were analyzed using nonlinear regression to a sigmoid curve with Prism 4 (GraphPad Software, Inc., LaJolla, CA). […]
parameter: SR
Numbers only.

Use the examples below as a reference point.
compound: O=S(=O)(O)c1cc2cc(S(=O)(=O)O)c(N=Nc3ccccc3[As](=O)(O)O)c(O)c2c(O)c1N=Nc1ccccc1[As](=O)(O)O [Arsenazo III]
tested.system: cancer cells on SISgel or plastic
SR: 1.4
//
compound: O=S(=O)([O-])c1ccc2c(N=Nc3cccc4ccccc34)c(O)c(S(=O)(=O)[O-])cc2c1.[Na+].[Na+] [DT310]
tested.system: cancer cells on SISgel or plastic
SR: 2.4
//
compound: O=S(=O)([O-])c1ccc2c(N=Nc3ccc(S(=O)(=O)[O-])c4ccccc34)c(O)c(S(=O)(=O)[O-])cc2c1.[Na+].[Na+].[Na+] [Amaranthe]
tested.system: cancer cells on SISgel or plastic
SR: 1.3

Please look at the items below and tell me SR for each one, in order.
1. O=S(=O)([O-])c1cc(O)c2c(N=Nc3c(S(=O)(=O)[O-])cc4cc(S(=O)(=O)[O-])cc(O)c4c3O)cc(S(=O)(=O)[O-])cc2c1.[Na+].[Na+].[Na+].[Na+] [Beryllon II]
2. CC(=O)Nc1ccc(N=Nc2c(S(=O)(=O)[O-])cc3cc(S(=O)(=O)[O-])cc(O)c3c2O)cc1.[Na+].[Na+] [Chromotrope 6B]
3. Cn1c(=O)c2[nH]c(-c3ccc(S(=O)(=O)O)cc3)nc2n(C)c1=O.O [8-(p-Sulfophenyl)theophylline hydrate]

3
2.1
2.5
